assay: viability loss with induced miR-34 in A549 – imaging, A549 dox-inducible miR-34, nuclei and caspase counts, primary screen (AID 1347080); conditions: A549 miR-34 inducible, Hoechst nuclei count, 48 h; measured here: total cells without miR-34 induction; also: test concentration not given here
Value Kind: cell count
A bare number is all that is needed in reply.

Here is how some molecules turned out for cell count.
Prompt: Sample N=C(N)SCCc1ccc(OCc2ccc([N+](=O)[O-])cc2)cc1 — what was its cell count?
Completion: 5790

Prompt: Item under review: c1ccc2oc(C3=NCCN3)cc2c1 . Reported cell count?
Completion: 9370

Prompt: For the molecule shown here, COc1cccc(Nc2c(C(N)=O)cnc3c(C)cc(S(=O)(=O)c4cccc(C(=O)N(C)C)c4)cc23)c1 , give the reported cell count.
Completion: 9610

Prompt: Please give the measured cell count for this molecule: CC1(O)CC(c2nc(-c3ccc4ccc(-c5ccccc5)nc4c3)c3c(N)nccn23)C1 (stereo not given)
Completion: 2180

Now let's try a different one.
Prompt: I would be grateful if you could share the reported cell count for O=C(Nc1c(Cl)cncc1Cl)c1ccc(OC(F)F)c(OCC2CC2)c1 .
Completion: 9050

Reference source: PubChem BioAssay
